# System: Vero E6 infected with SARS-CoV-2
# measurement.notes: inhibition of SARS-CoV-2 cytopathic effect; higher = more antiviral protection, active = above 15
# condition.notes: 1 nM; 48 h
measure: inhibition of SARS-CoV-2 cytopathic effect (%)
Enter your answer as a number in %; do not include the unit.

Observe how each entry below is paired with its result.
# compound, units.symbol, obs.value
data = [
    ("CC(=O)Oc1ccc(C(c2ccc(OC(C)=O)cc2)c2ccccn2)cc1 [bisacodyl]", "%", 0.11),
    ("COc1ccc(C[C@H]2NC[C@H](O)[C@H]2OC(C)=O)cc1 [anisomycin]", "%", 3.91),
    ("CC[C@@H](C)N(C)C(=O)c1cc2ccccc2c(-c2ccccc2Cl)n1", "%", -0.84),
    ("c1ccc2sc(SN3CCOCC3)nc2c1 [N-oxydiethylenebenzothiazole-2-sulfenamide]", "%", -2.53),
    ("N#Cc1cccc(-c2c[nH]c3ncnc(N4CCOCC4)c23)c1", "%", -1.16),
    ("CC[C@@]1(O)C(=O)OCc2c1cc1n(c2=O)Cc2cc3ccccc3nc2-1 [camptothecin]", "%", -1.27),
    ("Cc1cc(-c2cc(OC(=O)c3ccccc3)ccc2Cl)cc2nnc(Nc3ccc(OCCN4CCCC4)cc3)nc12", "%", -2.62),
    ("Oc1ccc2ccccc2c1Cc1c(O)ccc2ccccc12", "%", 2.61),
]

Output reported inhibition of SARS-CoV-2 cytopathic effect of the compound CC(=O)NCCc1c[nH]c2ccccc12 [N-acetyltryptamine] on Vero E6 infected with SARS-CoV-2.
0.9
